Consider the following molecules; for each one, report its GRinf.
Tested on: Mycobacterium tuberculosis Erdman (autoluminescent)
METHOD: GRinf, maximum normalised growth rate inhibition (three-drug combination) (unitless (-1 to 1)); higher = less effect (negative = killing)
STUDY CONDITIONS: in vitro model: acidic pH 5.7; time point: terminal (~4-5 doublings, model-specific)
// response body must contain only the number

Given CC(=O)NC[C@H]1CN(c2ccc(N3CCOCC3)c(F)c2)C(=O)O1 [linezolid] + NC(=O)c1cnccn1 [pyrazinamide] + CO[C@H]1/C=C/O[C@@]2(C)Oc3c(C)c(O)c4c(O)c(c(/C=N/N5CCN(C)CC5)c(O)c4c3C2=O)NC(=O)/C(C)=C\C=C\[C@H](C)[C@H](O)[C@@H](C)[C@@H](O)[C@@H](C)[C@H](OC(C)=O)[C@@H]1C [rifampicin] , respond with its GRinf.
-0.249

Given COc1nc2ccc(Br)cc2cc1[C@@H](c1ccccc1)[C@@](O)(CCN(C)C)c1cccc2ccccc12 [bedaquiline] + CC(C)/N=c1\cc2n(-c3ccc(Cl)cc3)c3ccccc3nc-2cc1Nc1ccc(Cl)cc1 [clofazimine] + CC(=O)NC[C@H]1CN(c2ccc(N3CCOCC3)c(F)c2)C(=O)O1 [linezolid] , respond with its GRinf.
-0.331

Given CC(C)/N=c1\cc2n(-c3ccc(Cl)cc3)c3ccccc3nc-2cc1Nc1ccc(Cl)cc1 [clofazimine] + CC[C@@H](CO)NCCN[C@@H](CC)CO [ethambutol] + CO[C@H]1/C=C/O[C@@]2(C)Oc3c(C)c(O)c4c(O)c(c(/C=N/N5CCN(C)CC5)c(O)c4c3C2=O)NC(=O)/C(C)=C\C=C\[C@H](C)[C@H](O)[C@@H](C)[C@@H](O)[C@@H](C)[C@H](OC(C)=O)[C@@H]1C [rifampicin] , respond with its GRinf.
-0.112

Given CC(=O)NC[C@H]1CN(c2ccc(N3CCOCC3)c(F)c2)C(=O)O1 [linezolid] + COc1c(N2C[C@@H]3CCCN[C@@H]3C2)c(F)cc2c(=O)c(C(=O)O)cn(C3CC3)c12 [moxifloxacin] + NC(=O)c1cnccn1 [pyrazinamide] , respond with its GRinf.
-0.38

Given CC(C)/N=c1\cc2n(-c3ccc(Cl)cc3)c3ccccc3nc-2cc1Nc1ccc(Cl)cc1 [clofazimine] + CC(=O)NC[C@H]1CN(c2ccc(N3CCOCC3)c(F)c2)C(=O)O1 [linezolid] + COc1c(N2C[C@@H]3CCCN[C@@H]3C2)c(F)cc2c(=O)c(C(=O)O)cn(C3CC3)c12 [moxifloxacin] , respond with its GRinf.
-0.183

Given CC(C)/N=c1\cc2n(-c3ccc(Cl)cc3)c3ccccc3nc-2cc1Nc1ccc(Cl)cc1 [clofazimine] + CC(=O)NC[C@H]1CN(c2ccc(N3CCOCC3)c(F)c2)C(=O)O1 [linezolid] + O=[N+]([O-])c1cn2c(n1)OC[C@@H](OCc1ccc(OC(F)(F)F)cc1)C2 [pretomanid] , respond with its GRinf.
-0.318
